Reported inhibition values for a set of compounds
assay.details: blockers of LAMP-1 surface exposure, TALL-104 – TALL-104 cells, flow cytometry, Cherry Pick01, confirmation (AID 651954);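 note: 0% = stimulated vehicle wells and 100% = unstimulated wells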
test.context: LAMP-1 externalization, at 10 µM, stronger effect = higher value, stimulated with PMA plus thapsigargin
Among all 1,500 compounds or so, about 160 (11%) were called active. The list is a sample of the results.

- compound: "Cc1cccc(N2CCC(NCc3c(C(=O)N4CCCCC4)nc4c(C)cccn34)CC2)c1"
  inhibition: "-4.45% (inactive)"
- compound: "COc1ccc(CC(N)c2csc(NC(=O)Nc3ccc(C(C)C)cc3)n2)cc1 (configuration not stated)"
  inhibition: "11.2% (inactive)"
- compound: "COc1ccc(CCNCc2c(-c3ccccc3)n(C)c3ccccc23)cc1"
  inhibition: "6.74% (inactive)"
- compound: "CN1CCN(C2Cc3ccc(Cl)cc3Sc3ccc(F)cc32)CC1 (configuration not stated)"
  inhibition: "15% (inactive)"
- compound: "Cc1oc(-c2ccccc2Cl)[n+]([O-])c1C"
  inhibition: "-3.08% (inactive)"
- compound: "COc1ccc(-c2csc(Nc3ccc(O)cc3)n2)cc1"
  inhibition: "-6.12% (inactive)"

Param item = COc1cccc(CNc2nc(C(F)(F)F)nc3ccccc23)c1 ; retrieve measured inhibition.
-14.3% (inactive)

Try CCOC(=O)C1(C)CCCN(C(=O)c2ccc(F)c(Cl)c2)C1 (configuration not stated) next.
-12.7% (inactive)

Try O=C(Nc1ccccc1)c1cccnc1Nc1ccccc1 next.
-4% (inactive)

Try O=C(Nc1ccc(Cl)cc1)Nc1nnc(/C=C/c2ccccc2)s1 next.
-2.86% (inactive)

Try COc1cccc(CNc2nc(NCc3ccccc3OC)nc3ccsc23)c1 next.
35.8% (inactive)

Try CC(C)Cn1cnc2c(SCc3ccc(Cl)cc3)nc(N)nc21 next.
-12.1% (inactive)

Try COc1ccc(-c2cn[nH]c2-c2ccc(OC)cc2)cc1 next.
2.16% (inactive)

Try COc1cccc(CN(C)CC(O)COC(c2ccccc2)c2ccccc2C)c1 (configuration not stated) next.
-4.22% (inactive)
